Catalogue of molecules with associated cytotoxicity
protocol_details: HPDE-C7 pancreatic duct cell viability loss – fluorescence, HTS (AID 430);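 further: cells exposed to compound for 48 hours before viability readout; 0% = vehicle and 100% = reference cytotoxic drug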
experimental_context: HPDE-C7 pancreatic duct cells viability, at 10 µM, active compounds read high
About 1,100 (1.7%) of roughly 63,000 compounds were called active. Shown is part of a subset that was picked to be rich in actives. Measured potencies and affinities stand elsewhere.
Give the value in % but do not write % after it.

Query string: Please look up its cytotoxicity: CCCCn1c(N)c(C(=O)NCCN2CCOCC2)c2nc3ccccc3nc21
Result string: 1.4

Query string: Please look up its cytotoxicity: CCn1nc(-c2cccs2)nc2c(=O)n(C)c(=O)nc1-2
Result string: 114

Query string: Please look up its cytotoxicity: O=C(Cn1ncc2ccccc21)N1CCC2(CC1)OCCO2
Result string: -19.4

Query string: Please look up its cytotoxicity: CNCC(O)c1ccc(O)cc1 (stereo unspecified)
Result string: 50.6

Query string: Please look up its cytotoxicity: COc1ccc(CCNC(=O)c2c(N)n(CCN3CCOCC3)c3nc4ccccc4nc23)cc1
Result string: 62.9

Query string: Please look up its cytotoxicity: c1cc2n(c1)-c1c(ccc3c1OCO3)CNC2c1ccc2c(c1)OCO2 (stereo unspecified)
Result string: 29.3

* * *

protocol_details: HPDE-C7 pancreatic duct cell viability loss – fluorescence, HTS (AID 430);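 further: cells exposed to compound for 48 hours before viability readout; 0% = vehicle and 100% = reference cytotoxic drug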
experimental_context: HPDE-C7 pancreatic duct cells viability, at 10 µM
Screen size: about 63,000 compounds; about 1,100 (1.7%) were called active. No stated cut-off is given here; in the data, active means cytotoxicity above about 50%; inactive means the rest. For the sample, actives were picked, then their nearest neighbours and some compounds at random. Measured potencies and affinities stand elsewhere.
Hi! Could you answer with just one of these? yes (1) = active, no (0) = inactive

Worked examples, 2 molecules total:
C=CCn1c(O)c(C(C)=NCc2cccnc2)c(=O)[nH]c1=O | no (0)
COCCOC(=O)c1c(N)n(Cc2ccco2)c2nc3ccccc3nc12 | no (0)

Query string: Answer briefly: the call reported for O=c1cccc2n1CC1CC2CN(Cc2ccc3c(c2)OCO3)C1 (stereo not given) in this assay.
Result string: no (0)

Query string: Answer briefly: the call reported for CCOC(=O)c1c(N)n(CCN2CCCCC2)c2nc3ccccc3nc12 in this assay.
Result string: no (0)

Query string: Answer briefly: the call reported for CCc1nc2ccccc2c(=O)n1-c1cccc(OC)c1 in this assay.
Result string: no (0)

Query string: Answer briefly: the call reported for CCCCn1c(O)c(C(CC)=NCc2ccc3c(c2)OCO3)c(=O)[nH]c1=O in this assay.
Result string: no (0)

Query string: Answer briefly: the call reported for c1ccc2c3c([nH]c2c1)CNCC3 in this assay.
Result string: no (0)

Query string: Answer briefly: the call reported for O=c1[nH]c(=O)n(Cc2ccccc2)c(O)c1C=NCCN1CCNCC1 in this assay.
Result string: no (0)

Query string: Answer briefly: the call reported for CCOC(=O)c1cc2c(cn1)[nH]c1ccccc12 in this assay.
Result string: no (0)

Query string: Answer briefly: the call reported for CC(=NCc1cccnc1)c1c(O)n(Cc2ccccc2)c(=O)[nH]c1=O in this assay.
Result string: no (0)

Query string: Answer briefly: the call reported for CCOc1ccc(C2SCC(=O)Nc3c2c(=O)[nH]n3C2CCCCCC2)cc1 (stereo not given) in this assay.
Result string: no (0)

Query string: Answer briefly: the call reported for O=c1c(C=NCCN2CCNCC2)c(O)n(C2CCCCC2)c(=O)n1C1CCCCC1 in this assay.
Result string: yes (1)

Query string: Answer briefly: the call reported for CCCCn1c(=O)c(C(=O)Nc2nc3ccccc3[nH]2)c(O)c2ccccc21 in this assay.
Result string: no (0)

Query string: Answer briefly: the call reported for C=Cn1ccnc1P(=S)(c1ccn(C)c1)c1nccn1C=C in this assay.
Result string: no (0)

All figures here come from PubChem BioAssay AID430.
